- Target Desc: T1, human BKB2R-derived epitope peptide (SEQ ID NO:73), PEG-biotin (human, also: PEG-biotin, site not given here)
- T1 construct: also called immunogenic human BKB2R peptide fragment
- T1 peptide: KEYSDEGHNVTAC
- Protocol: BLI (Octet), peptide-PEG-biotin on streptavidin sensor, antibody 500 nM
- Procedure: For the Octet study, antibodies were analyzed by kinetic titration of the antibodies. […] Sensor Prep: Streptavidin biosensors (FortéBio Inc, Menlo Park, Calif.) were coated by incubation in a solution containing a peptide ([…]-PEG-biotin) (Biosyn, Lewisville, Tex.) at 50 μg/ml (300 seconds/1000 rpm shaking). […] Octet system software calculated kinetic constants for on rate/off rate/affinity. […]
Where no end group is shown, it is not given here.
# kon values compiled below
Number in M⁻¹ s⁻¹, nothing else.

Binder	Measurement Name	Assay Value
chimeric/humanized anti-BKB2R antibody L1/HC (antibody, human IgG2, V domains shown, not shown: human IgG2 constant region) VH: EVKLEESGGGLVQPGGSMKLSCVVSGFTFSDYWMSWVRHSPEMGLEWVAEIRLKSDNYATHYAESVKGRFTISRDDSKSRLYLQINSLRGEDTGIYYCTRDYYAMEYWGQGTSVTVSS VL: DIVMTQSPLSLPVTPGEPASISCRSSQTIVHSNGKTYLEWYLQKPGQSPQLLIYKVSNRFSGVPDRFSGSGSGTDFTLKISRVEAEDVGVYYCFQASHVPYTFGQGTKLEIKR	kon	543000

Entry humanized anti-BKB2R antibody L2/H1 (antibody, human IgG2, kappa, V domains shown) VH: EVQLVESGGGLVQPGGSLRLSCAASGFTFSDYWMSWVRQAPGKGLEWVAEIRLKSDNYATHYAESVKGRFTISRDNAKNSLYLQMNSLRAEDTAVYYCTRDYYAMEYWGQGTLVTVSS VL: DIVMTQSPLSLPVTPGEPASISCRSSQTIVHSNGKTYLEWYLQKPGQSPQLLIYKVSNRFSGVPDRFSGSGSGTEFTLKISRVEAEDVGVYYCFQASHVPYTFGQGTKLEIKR ; kon = 1.21e+06
